In this section we review reported Ki values for a set of compounds.
Target: human M1 receptor (Homo sapiens (Human), UniProt P11229)
Sequence (P11229 whole entry): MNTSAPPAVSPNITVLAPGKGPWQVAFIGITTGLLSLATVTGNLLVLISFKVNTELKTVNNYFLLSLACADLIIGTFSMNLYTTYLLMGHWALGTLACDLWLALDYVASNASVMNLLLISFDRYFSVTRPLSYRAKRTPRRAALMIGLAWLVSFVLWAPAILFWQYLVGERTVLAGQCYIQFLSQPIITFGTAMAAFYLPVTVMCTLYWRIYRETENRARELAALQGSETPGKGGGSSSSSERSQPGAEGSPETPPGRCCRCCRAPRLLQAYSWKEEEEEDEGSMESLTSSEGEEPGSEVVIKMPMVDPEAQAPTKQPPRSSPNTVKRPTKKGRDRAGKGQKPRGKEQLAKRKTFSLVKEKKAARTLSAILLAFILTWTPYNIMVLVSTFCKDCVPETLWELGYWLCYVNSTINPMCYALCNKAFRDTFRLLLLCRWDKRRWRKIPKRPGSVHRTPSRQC
Test: Radioligand (tritiated N-methylscopolamine) binding assay, M1
Conditions: CHO cell membranes expressing human M1; 1.5 nM tritiated N-methylscopolamine; 90 min, 37° C.; read-out: Ki against M1 receptor (Table 21, M1)

Previously resolved entries follow.
COMPOUND	SUBJECT OF TEST	Ki
C[C@@H]1CN(c2ccc(F)c(C#N)c2)CCN1C(=O)NC[C@H](O)C1CCN(Cc2ccccc2)CC1	human M1 receptor (Homo sapiens (Human), UniProt P11229)	> 1 µM
C[C@H]1CN(c2ccc(OC(F)(F)F)c(F)c2)CCN1C(=O)NCCC1CCN(Cc2ccccc2)CC1	human M1 receptor (Homo sapiens (Human), UniProt P11229)	0.1 to 1 µM
O=C(NCCC1CCN(Cc2ccccc2)CC1)C1CCN(c2cccc(OC(F)(F)F)c2)CC1	human M1 receptor (Homo sapiens (Human), UniProt P11229)	0.1 to 1 µM
O=C(NCCC1CCN(Cc2ccccc2)CC1)c1ccc(-c2ccc(OC(F)(F)F)cc2)cc1 [9-70]	human M1 receptor (Homo sapiens (Human), UniProt P11229)	0.1 to 1 µM
O=C(NCCC1CCN(Cc2ccccc2)CC1)C1CCN(c2ccc(F)c(OC(F)(F)F)c2)CC1	human M1 receptor (Homo sapiens (Human), UniProt P11229)	0.1 to 1 µM
C[C@@H]1CN(c2ncc(C#N)cn2)C[C@H](C)N1C(=O)NCCC1CCN(Cc2ccc(F)cc2)CC1	human M1 receptor (Homo sapiens (Human), UniProt P11229)	> 1 µM
C[C@@H]1CN(c2ccc(F)c(C#N)c2)CCN1C(=O)NCCC1CCN(Cc2ccccc2)CC1	human M1 receptor (Homo sapiens (Human), UniProt P11229)	0.1 to 1 µM

# next compound below
Short answer for `C[C@@H]1CN(c2cc(F)c(Cl)c(F)c2)CCN1C(=O)NCCC1CCN(Cc2ccccc2)CC1` : Ki was 0.1 to 1 µM

* * *

Target: human M4 receptor (Homo sapiens (Human))
Sequence (P08173 whole entry): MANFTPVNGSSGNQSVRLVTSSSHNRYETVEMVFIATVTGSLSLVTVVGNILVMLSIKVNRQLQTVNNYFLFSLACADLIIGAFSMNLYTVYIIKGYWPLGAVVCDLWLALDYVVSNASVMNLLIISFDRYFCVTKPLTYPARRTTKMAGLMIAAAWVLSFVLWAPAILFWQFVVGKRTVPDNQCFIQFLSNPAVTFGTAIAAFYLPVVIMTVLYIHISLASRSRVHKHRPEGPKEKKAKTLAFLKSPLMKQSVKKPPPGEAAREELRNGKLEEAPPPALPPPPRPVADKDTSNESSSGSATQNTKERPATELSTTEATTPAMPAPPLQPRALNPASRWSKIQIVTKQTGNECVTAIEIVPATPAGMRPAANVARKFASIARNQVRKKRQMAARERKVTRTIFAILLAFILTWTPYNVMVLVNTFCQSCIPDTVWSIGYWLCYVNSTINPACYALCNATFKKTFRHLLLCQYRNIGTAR
Experiment: Radioligand (tritiated N-methylscopolamine) binding assay, M4
Settings: Ki against the M4 receptor; membranes from CHO cells expressing human M4; tritiated N-methylscopolamine 1.5 nM; read-out: Ki
pKi: −log10 of the molar value.
Reported pKi values follow for various compounds

Reference set (5 entries):
COMPOUND	ENDPOINT LABEL	MEASURED
C[C@@H]1CN(c2ncc(C#N)cn2)CCN1C(=O)NCCC1CCN(Cc2ccccc2)CC1	pKi	7.00 to 8.00
CN(CCNC(=O)C1CCN(c2ccc(OC(F)(F)F)cc2)CC1)[C@@H]1CCN(Cc2ccccc2)C1	pKi	7.00 to 8.00
Cc1c(C(=O)NCCC2CCN(Cc3ccccc3)CC2)cnc2cc(-c3ccc(F)nc3)nn12	pKi	6.00 to 7.00
C[C@@H]1CN(c2cc(F)c(F)c(F)c2)CCN1C(=O)NCCC1CCN(Cc2ccc(F)c(F)c2F)CC1	pKi	6.00 to 7.00
C[C@@H]1CN(c2ncc(C(F)(F)F)c(N)n2)CCN1C(=O)NCCC1CCN(Cc2ccccc2)CC1 [21-16]	pKi	> 8.00

Measured pKi, `C[C@@H]1CN(c2ncc(C#N)c(N(C)C)n2)CCN1C(=O)NCCC1CCN(Cc2ccccc2)CC1` : 7.00 to 8.00

// `N#Cc1ccc(-c2ccc(C(=O)NCCC3CCN(Cc4ccccc4)CC3)cc2)cc1` : pKi value = 7.00 to 8.00

Value of measured pKi for the entry `O=C(NCCC1CCN(Cc2ccccc2)CC1)N1CCN(c2ccc(C(F)(F)F)cn2)CC1` : > 8.00

Kindly note the recorded pKi for `C[C@@H]1CN(c2cc(F)c(F)c(F)c2)CCN1C(=O)NCCC1CCN(Cc2cccs2)CC1` , which is > 8.00

So, `Cc1c(C(=O)NC[C@H](O)C2CCN(Cc3ccccc3)CC2)cnc2cc(-c3cccc(C(F)(F)F)c3)nn12` ? Its pKi was > 8.00

The recorded pKi for `C[C@@H]1CN(c2ncc(C(F)(F)F)c(N)n2)C[C@@H](C)N1C(=O)NCCC1CCN(Cc2ccccc2)CC1` is > 8.00
